Attribution: patent US6313153A

- Test system: total TGF-β1
- ASSAY METHOD TEXT: production of total TGF-β1 in glomeruli isolated from nephritic mice (ELISA)
- Assay type: cell-based, BALB/c male mice
- CONDITION CONTEXT: Mus musculus, 10^-6 M, 48 hours, supernatant acid treated, read-out: Inhibition rate (%) of production of total TGF-β1
Counter-ions that a name gives are not always drawn.
PROPERTY LABEL: inhibition at 1 µM (%)
Field: numeric (%). Do not append units.

Check out these entries, answers already filled in.
CCN(CCc1ccc(OC)c(OC)c1)C(=O)/C=C/c1cccnc1 [Compound 12] | 37.8
COc1ccc(CCN(C)C(=O)/C=C/c2ccncc2)cc1OC [Compound 154] | 53.4
COc1ccc(CCN(C)C(=S)/C=C/c2cccnc2)cc1OC [Compound 135, hydrochloride] | 47.1
O=C(O)COc1cccc(CCNC(=S)/C=C/c2cccnc2)c1 [Compound 151] | 19.1
O=C(O)COc1ccc(CCNC(=O)/C=C/c2cccnc2)cc1 [Compound 149] | 35.9

Please give the measured inhibition at 1 µM for this compound: COc1ccc(CCN(C)C(=O)/C=C/c2cccnc2)cc1 [Compound 49] 59

Please give the measured inhibition at 1 µM for this compound: O=C(O)COc1cccc(CCNC(=O)/C=C/c2cccnc2)c1 [Compound 148] 78.3

Please give the measured inhibition at 1 µM for this compound: O=C(/C=C/c1cccnc1)NCCc1cccc(OCC(=O)NO)c1 [Compound 120] 56.9

Please give the measured inhibition at 1 µM for this compound: COc1ccc(CCNC(=O)/C=C/c2cccnc2)cc1OC [Compound 55] 75.7

Please give the measured inhibition at 1 µM for this compound: COc1ccc(CCN(C)C(=O)/C=C/c2cccnc2)cc1OC [Compound 84] 85

###

- System: anti-GBM nephritic mice
- ASSAY METHOD TEXT: anti-GBM nephritic mice: proteinuria, serum cholesterol, blood urea nitrogen and serum creatinine;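 further: minus not effective plus trend double p<0.05 triple p<0.01 quadruple p<0.001 improvement vs control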
- Assay type: in vivo, BALB/c mice
- CONDITION CONTEXT: 11th day; oral
PROPERTY LABEL: Serum Parameter BUN (blood urea nitrogen)

Check out these entries, answers already filled in.
COc1cccc(CCN(C)C(=O)/C=C/c2cccnc2)c1OC | +
O=C(/C=C/c1cccnc1)NCCc1ccc(O)c(O)c1 | -
CN(CCc1ccc(O)c(O)c1)C(=O)/C=C/c1cccnc1 | +
COc1ccc(CCN(C)C(=O)/C(C)=C/c2cccnc2)cc1OC | ++
COC(=O)COc1ccccc1CCNC(=O)/C=C/c1cccnc1 | -

Any idea what Serum Parameter BUN (blood urea nitrogen) came out for COc1ccc(CCN(C)C(=O)/C=C/c2cccnc2)cc1OC [Compound 84] on anti-GBM nephritic mice? +++

Any idea what Serum Parameter BUN (blood urea nitrogen) came out for O=C(/C=C/c1cccnc1)NCCc1cccc(O)c1 [Compound 81] on anti-GBM nephritic mice? +++

Any idea what Serum Parameter BUN (blood urea nitrogen) came out for `O=C(/C=C/c1cccnc1)NCc1ccc(O)cc1` on anti-GBM nephritic mice? -

Any idea what Serum Parameter BUN (blood urea nitrogen) came out for COc1ccc(CCN(C)C(=O)/C=C/c2cccnc2)cc1OC [Compound 140] on anti-GBM nephritic mice? ++

Any idea what Serum Parameter BUN (blood urea nitrogen) came out for `COc1ccc(CCN(C)C(=O)/C=C/c2cncc(Cl)c2)cc1OC` on anti-GBM nephritic mice? +
